- Test: Pharmacokinetic study of LUT and LUT-NS-LP in rats
- Assay type: in vivo, Sprague-Dawley (SD) rats
- Run parameters: male, Sprague-Dawley, rat, plasma, po, 200 mg/kg
Endpoint: Cmax (ng/mL)

>>> reading("O=c1cc(-c2ccc(O)c(O)c2)oc2cc(O)cc(O)c12")
1140

====

- Test: Pharmacokinetic study of LUT and LUT-NS-LP in rats
- Assay type: in vivo, Sprague-Dawley (SD) rats
- Run parameters: male, Sprague-Dawley, rat, plasma, po, 200 mg/kg
Endpoint: Vd/F (L/kg)

>>> reading("O=c1cc(-c2ccc(O)c(O)c2)oc2cc(O)cc(O)c12")
178
